protocol notes: PK of compound of Formula (Ia) after single subcutaneous dose of solution formulations in Wistar Han rats
Format: in vivo
condition set: male, Wistar Han, rat, plasma, sc, 50 mg/kg, Wistar Han rats, SC 50 mg/kg, 400 mg/mL solution Y (water, PEG 300), 3.00 h, Mean n = 4
readout: concentration at 3 h (µM)
Lab book: enter the figure in µM, no units written.

For the compound CC(C)(C#Cc1ccc(-c2ccc(Cl)c3c(NS(C)(=O)=O)nn(CC(F)(F)F)c23)c([C@H](Cc2cc(F)cc(F)c2)NC(=O)Cn2nc(C(F)(F)F)c3c2C(F)(F)[C@@H]2C[C@H]32)n1)S(C)(=O)=O [compound of Formula (Ia)] , give its reported concentration at 3 h.
0.0522
